Test: Pharmacokinetics study of KPT-335 in cats (i.v. injection, p.o. capsules and tablets; UPLC-MS/MS, non-compartmental analysis)
Type: in vivo
Settings: both sexes, cat, plasma, po, 2 mg/kg, cats, tablet p.o. 2 mg/kg BW after feeding, 24 h, mean
parameter.measured: concentration at 24 h
Please answer using the number first and the unit second.

Enquiry: Name the recorded concentration at 24 h for O=C(/C=C\n1cnc(-c2cc(C(F)(F)F)cc(C(F)(F)F)c2)n1)NNc1ccccn1 [KPT-335] .
Return: 6.55 ng/mL

----------
Test: Pharmacokinetics study of KPT-335 in cats (i.v. injection, p.o. capsules and tablets; UPLC-MS/MS, non-compartmental analysis)
Assay type: in vivo
Conditions: both sexes, cat, plasma, po, 2 mg/kg, cats, capsule p.o. 2 mg/kg BW, 4 h, mean; read-out: Plasma concentration Mean
parameter.measured: concentration at 4 h (ng/mL)
Just the number please, in ng/mL, no unit attached.

Enquiry: What value of measured concentration at 4 h is listed for O=C(/C=C\n1cnc(-c2cc(C(F)(F)F)cc(C(F)(F)F)c2)n1)NNc1ccccn1 ?
Return: 187
